# measured.target: EPHB2 (UniProt P29323)
# Sequence (P29323 whole entry, looked up): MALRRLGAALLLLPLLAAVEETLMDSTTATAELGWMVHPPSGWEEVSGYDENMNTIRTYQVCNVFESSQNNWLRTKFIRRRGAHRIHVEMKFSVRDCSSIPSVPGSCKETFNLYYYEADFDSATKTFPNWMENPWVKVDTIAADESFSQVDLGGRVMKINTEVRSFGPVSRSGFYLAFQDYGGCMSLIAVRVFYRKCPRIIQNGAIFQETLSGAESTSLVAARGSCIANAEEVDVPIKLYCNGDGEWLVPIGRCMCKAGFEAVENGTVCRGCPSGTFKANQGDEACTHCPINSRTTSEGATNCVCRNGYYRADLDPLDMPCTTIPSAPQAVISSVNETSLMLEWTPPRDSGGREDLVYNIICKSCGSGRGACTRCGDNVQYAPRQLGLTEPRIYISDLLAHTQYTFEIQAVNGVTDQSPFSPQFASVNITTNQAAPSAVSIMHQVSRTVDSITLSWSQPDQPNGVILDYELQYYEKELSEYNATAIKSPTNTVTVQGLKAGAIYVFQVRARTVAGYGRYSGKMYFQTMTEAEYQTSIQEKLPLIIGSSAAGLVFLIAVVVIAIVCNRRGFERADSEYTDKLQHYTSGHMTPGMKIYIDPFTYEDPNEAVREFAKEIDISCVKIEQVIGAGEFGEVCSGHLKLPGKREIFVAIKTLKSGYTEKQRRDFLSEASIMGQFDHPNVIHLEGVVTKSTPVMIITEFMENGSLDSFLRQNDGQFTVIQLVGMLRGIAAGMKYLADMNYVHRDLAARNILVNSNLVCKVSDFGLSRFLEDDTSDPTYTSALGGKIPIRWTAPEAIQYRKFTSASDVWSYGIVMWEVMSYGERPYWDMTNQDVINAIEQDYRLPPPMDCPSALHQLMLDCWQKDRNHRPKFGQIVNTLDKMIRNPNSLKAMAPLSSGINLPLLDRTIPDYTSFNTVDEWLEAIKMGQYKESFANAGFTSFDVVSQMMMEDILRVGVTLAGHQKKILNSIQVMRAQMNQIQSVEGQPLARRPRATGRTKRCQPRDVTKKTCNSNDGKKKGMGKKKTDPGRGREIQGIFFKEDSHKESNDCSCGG
# assay.protocol: phosphorylation enrichment, bacterial display (enrichment ratio); higher = better substrate or ligand; peptides without Tyr show the background;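 also: 11-residue human phosphosite peptides and single-mutation variants displayed on the E. coli surface, counted by deep sequencing, each peptide's frequency after selection divided by its frequency in the unselected input library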;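 also: frequency after pTyr selection over input frequency; kinase dosed for 20-30% of maximal phosphorylation in three min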
phosphorylation enrichment below 0.6 gives not met; phosphorylation enrichment at or above it gives met.

Problem: Could you tell me if the measured phosphorylation enrichment of KKFPDYIQIAR [SGMS2_Y59_M64R_YF] reaches 0.6 or more?
Solution: met

Problem: Could you tell me if the measured phosphorylation enrichment of GKVADYIPQLP [GLS_Y249_A254P] reaches 0.6 or more?
Solution: not met

Problem: Could you tell me if the measured phosphorylation enrichment of VVEYGYEFFAK [PPP1CB_Y254_D252Y] reaches 0.6 or more?
Solution: met

Problem: Could you tell me if the measured phosphorylation enrichment of SSQHRYSTPHA [RAF1_Y232] reaches 0.6 or more?
Solution: not met

Problem: Could you tell me if the measured phosphorylation enrichment of FFVVEYRDQKP [MUC17_Y4332_YF] reaches 0.6 or more?
Solution: met

Problem: Could you tell me if the measured phosphorylation enrichment of NIQKKYFRAIL [CHD7_Y1217_YF] reaches 0.6 or more?
Solution: not met

Problem: Could you tell me if the measured phosphorylation enrichment of EWLRRHLENGK [HLA-A_Y195_Y195H] reaches 0.6 or more?
Solution: not met

Problem: Could you tell me if the measured phosphorylation enrichment of FSMGCYEIFLG [HMGCL_Y198_S201Y_YF] reaches 0.6 or more?
Solution: met

Problem: Could you tell me if the measured phosphorylation enrichment of YYSSEYHCVGG [CTSC_Y345_Y347C] reaches 0.6 or more?
Solution: met

Problem: Could you tell me if the measured phosphorylation enrichment of RELGKYGLQAY [ALDH2_Y497_E496K] reaches 0.6 or more?
Solution: not met

Problem: Could you tell me if the measured phosphorylation enrichment of ISRLKYPVSQQ [BTK_Y375] reaches 0.6 or more?
Solution: not met

Problem: Could you tell me if the measured phosphorylation enrichment of HNMPIYEGYAL [ACTA1_Y168_V165M] reaches 0.6 or more?
Solution: met

Problem: Could you tell me if the measured phosphorylation enrichment of RDHFGYRQSVT [CD55_Y245_YF] reaches 0.6 or more?
Solution: not met

Problem: Could you tell me if the measured phosphorylation enrichment of ILGRTHFVNHE [NEDD4_Y627_Y627H_YF] reaches 0.6 or more?
Solution: not met

---

# measured.target: Hck (UniProt P08631)
# Sequence (P08631 whole entry, looked up): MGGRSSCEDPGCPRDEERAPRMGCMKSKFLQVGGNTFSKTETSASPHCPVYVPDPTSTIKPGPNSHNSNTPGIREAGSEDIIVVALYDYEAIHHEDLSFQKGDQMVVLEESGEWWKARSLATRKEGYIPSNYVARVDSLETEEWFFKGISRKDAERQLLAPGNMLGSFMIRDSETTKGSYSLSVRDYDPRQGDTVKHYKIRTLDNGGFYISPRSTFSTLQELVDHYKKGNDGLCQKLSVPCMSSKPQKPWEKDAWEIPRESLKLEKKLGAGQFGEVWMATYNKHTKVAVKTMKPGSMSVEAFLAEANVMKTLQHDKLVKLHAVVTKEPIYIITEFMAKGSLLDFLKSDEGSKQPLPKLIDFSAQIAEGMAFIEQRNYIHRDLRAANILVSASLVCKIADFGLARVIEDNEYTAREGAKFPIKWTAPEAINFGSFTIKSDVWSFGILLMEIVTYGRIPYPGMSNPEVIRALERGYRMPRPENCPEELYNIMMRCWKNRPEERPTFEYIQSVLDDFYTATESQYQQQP
# assay.protocol: phosphorylation enrichment, bacterial display (enrichment ratio); higher = better substrate or ligand; peptides without Tyr show the background
reported.property: phosphorylation enrichment

Per the records, this sequence ( LQRVQCDLQKA [DSP_Y1512_Y1512C] ) has phosphorylation enrichment equal to 0.812

Per the records, this sequence ( PLFKIYVAELI [MRPL28_Y230] ) has phosphorylation enrichment equal to 0.738

Per the records, this sequence ( KNDSKYVVKGN [KIT_Y823_N822K] ) has phosphorylation enrichment equal to 0.379

Per the records, this sequence ( PMDTFYDSTRG [DYNC2H1_Y2231_YF] ) has phosphorylation enrichment equal to 1.71

Per the records, this sequence ( MKKKIYAMGGG [GAN_Y424] ) has phosphorylation enrichment equal to 0.414

Per the records, this sequence ( ITGNGYYFRVF [MYBPC3_Y1135_I1131T] ) has phosphorylation enrichment equal to 0.385

Per the records, this sequence ( SIKDKHVTALY [KCNH2_Y611_Y611H] ) has phosphorylation enrichment equal to 0.397

---

# measured.target: Jak2 (UniProt O60674)
# Sequence (O60674 whole entry, looked up): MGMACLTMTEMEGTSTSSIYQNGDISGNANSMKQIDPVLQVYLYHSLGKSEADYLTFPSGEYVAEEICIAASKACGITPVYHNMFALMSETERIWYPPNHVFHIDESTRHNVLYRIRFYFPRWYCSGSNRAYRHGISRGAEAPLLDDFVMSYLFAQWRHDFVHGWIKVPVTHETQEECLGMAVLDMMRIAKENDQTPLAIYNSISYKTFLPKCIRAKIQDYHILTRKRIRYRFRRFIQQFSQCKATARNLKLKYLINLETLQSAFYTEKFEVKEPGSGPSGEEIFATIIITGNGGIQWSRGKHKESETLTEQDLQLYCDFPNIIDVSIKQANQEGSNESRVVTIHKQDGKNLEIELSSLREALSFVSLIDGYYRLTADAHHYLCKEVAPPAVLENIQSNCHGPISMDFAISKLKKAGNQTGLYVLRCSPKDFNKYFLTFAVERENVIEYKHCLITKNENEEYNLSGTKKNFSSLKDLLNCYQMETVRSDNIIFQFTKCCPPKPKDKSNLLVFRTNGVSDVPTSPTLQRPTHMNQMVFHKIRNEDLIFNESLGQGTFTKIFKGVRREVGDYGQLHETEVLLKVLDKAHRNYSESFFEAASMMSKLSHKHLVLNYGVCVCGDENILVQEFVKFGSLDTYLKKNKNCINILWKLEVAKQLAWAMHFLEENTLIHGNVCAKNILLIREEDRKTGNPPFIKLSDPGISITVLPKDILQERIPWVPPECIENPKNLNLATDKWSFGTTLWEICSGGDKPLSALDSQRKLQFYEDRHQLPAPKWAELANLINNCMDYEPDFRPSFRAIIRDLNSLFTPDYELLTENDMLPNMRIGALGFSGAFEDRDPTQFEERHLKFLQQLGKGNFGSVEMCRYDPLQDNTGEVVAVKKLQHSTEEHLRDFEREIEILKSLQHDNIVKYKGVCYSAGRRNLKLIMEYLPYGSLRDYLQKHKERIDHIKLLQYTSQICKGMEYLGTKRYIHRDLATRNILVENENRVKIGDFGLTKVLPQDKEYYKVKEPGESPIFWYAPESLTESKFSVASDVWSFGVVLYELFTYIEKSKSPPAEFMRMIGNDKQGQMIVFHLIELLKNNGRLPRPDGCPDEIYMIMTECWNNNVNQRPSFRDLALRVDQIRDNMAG
# assay.protocol: phosphorylation enrichment, bacterial display (enrichment ratio); higher = better substrate or ligand; peptides without Tyr show the background
Please provide measured phosphorylation enrichment for the entries that follow.
Response field accepts a number only; no unit should be typed.

Per the records, this sequence ( YFVVEYRNQKP [MUC17_Y4332_D4334N] ) has phosphorylation enrichment equal to 2.32

Per the records, this sequence ( RQQEVYLLFKQ [RARRES1_Y159_D158V_YF] ) has phosphorylation enrichment equal to 1.37

Per the records, this sequence ( KKGIVYIFNGR [ITGAV_Y404] ) has phosphorylation enrichment equal to 0.868

Per the records, this sequence ( ALLTKYSHSSM [DSCC1_Y374] ) has phosphorylation enrichment equal to 0.542

Per the records, this sequence ( PLDGEYFTLRI [TP53_Y327_Q331R] ) has phosphorylation enrichment equal to 2.88

Per the records, this sequence ( ATGGFYSFGGG [KRT24_Y120_YF] ) has phosphorylation enrichment equal to 0.706

Per the records, this sequence ( PFDAEYGGGGG [AKR1B10_Y316_N313D] ) has phosphorylation enrichment equal to 1.66

Per the records, this sequence ( SFLSFYTSHVQ [NEFL_Y443_P440L_YF] ) has phosphorylation enrichment equal to 1.1

Per the records, this sequence ( KGLKVYVNGTL [ADGRD1_Y183_E178K] ) has phosphorylation enrichment equal to 0.923

Per the records, this sequence ( KFDLMYAKHAF [TUBA1A_Y399_R402H] ) has phosphorylation enrichment equal to 0.805

Per the records, this sequence ( PIDLYYLMDLS [ITGB2_Y131] ) has phosphorylation enrichment equal to 8.57

Per the records, this sequence ( LKRIAYFLCLR [LGI1_Y21_L26R] ) has phosphorylation enrichment equal to 0.949

Per the records, this sequence ( FDAHNYHPLPV [OAT_Y55_G51D_YF] ) has phosphorylation enrichment equal to 1.02

---

# measured.target: MERTK (UniProt Q12866)
# Sequence (Q12866 whole entry, looked up): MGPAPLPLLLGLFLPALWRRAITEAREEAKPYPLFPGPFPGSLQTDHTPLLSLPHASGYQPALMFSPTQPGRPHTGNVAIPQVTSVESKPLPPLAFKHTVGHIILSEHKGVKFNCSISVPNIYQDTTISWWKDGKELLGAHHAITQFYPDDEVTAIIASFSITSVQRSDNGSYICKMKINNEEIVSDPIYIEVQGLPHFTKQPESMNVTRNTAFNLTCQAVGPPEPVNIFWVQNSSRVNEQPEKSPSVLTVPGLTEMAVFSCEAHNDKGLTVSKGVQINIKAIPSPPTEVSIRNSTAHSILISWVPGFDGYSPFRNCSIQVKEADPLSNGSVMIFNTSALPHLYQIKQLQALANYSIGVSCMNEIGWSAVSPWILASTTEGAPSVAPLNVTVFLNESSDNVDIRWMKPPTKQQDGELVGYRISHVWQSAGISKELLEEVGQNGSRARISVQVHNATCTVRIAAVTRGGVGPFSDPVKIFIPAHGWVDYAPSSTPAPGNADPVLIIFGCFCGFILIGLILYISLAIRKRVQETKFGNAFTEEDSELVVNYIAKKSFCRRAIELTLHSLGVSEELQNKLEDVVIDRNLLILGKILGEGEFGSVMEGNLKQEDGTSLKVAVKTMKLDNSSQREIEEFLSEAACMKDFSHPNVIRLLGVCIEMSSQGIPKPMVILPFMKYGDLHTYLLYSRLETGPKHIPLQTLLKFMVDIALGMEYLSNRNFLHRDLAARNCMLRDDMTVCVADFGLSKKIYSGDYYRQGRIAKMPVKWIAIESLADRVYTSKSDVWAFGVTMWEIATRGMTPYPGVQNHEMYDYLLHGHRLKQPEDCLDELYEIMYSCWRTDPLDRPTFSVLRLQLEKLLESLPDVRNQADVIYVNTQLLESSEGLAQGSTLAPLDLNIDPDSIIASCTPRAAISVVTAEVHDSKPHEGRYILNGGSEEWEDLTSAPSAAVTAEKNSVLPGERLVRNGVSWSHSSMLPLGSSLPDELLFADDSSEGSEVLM
# assay.protocol: phosphorylation enrichment, bacterial display (enrichment ratio); higher = better substrate or ligand; peptides without Tyr show the background
Would you mind classing the entries by phosphorylation enrichment? Ranges: band 1: < 0.4; band 2: ≥ 0.4 and < 0.6; band 3: ≥ 0.6

Problem: Sort NVDGKYSYLKV [GRM3_Y478_G475D] into one of the categories.
Solution: band 2

Problem: Sort QRRNVYYYSYL [PTEN_Y176_Y174N] into one of the categories.
Solution: band 3

Problem: Sort YMRGMYFRMTD [PLA2G6_Y541_K545T] into one of the categories.
Solution: band 3

Problem: Sort HDHFGYRQSVT [CD55_Y245_R240H_YF] into one of the categories.
Solution: band 1

Problem: Sort GRTGHYLCNAC [GATA1_Y223_D218G] into one of the categories.
Solution: band 2

Problem: Sort QRRLIYRCQVG [NR2E3_Y81_R76Q] into one of the categories.
Solution: band 3

Problem: Sort HSVLQYVGGVM [FGGY_Y136] into one of the categories.
Solution: band 3

Problem: Sort QLAPQYTFAQG [FLNA_Y1761_YF] into one of the categories.
Solution: band 2

Problem: Sort MNPPPYSQFLS [FGF23_Y154] into one of the categories.
Solution: band 2

Problem: Sort SIKDKHVTALY [KCNH2_Y611_Y611H] into one of the categories.
Solution: band 1

Problem: Sort YKEQGYHRLPS [RIN1_Y681_P686S] into one of the categories.
Solution: band 2

Problem: Sort VQDPAYLRDID [OPRK1_Y369] into one of the categories.
Solution: band 2

---

# System: c-Abl (mouse)
# assay.protocol: phosphorylation enrichment, bacterial display (enrichment ratio); higher = better substrate or ligand; peptides without Tyr show the background
reported.property: phosphorylation enrichment
Response field accepts a number only; no unit should be typed.

Per the records, this sequence ( DSGKLYALDVL [INO80_Y1104] ) has phosphorylation enrichment equal to 0.643

Per the records, this sequence ( VYAADYYKLLG [ROR2_Y645] ) has phosphorylation enrichment equal to 1.99

Per the records, this sequence ( ISSLDYISKSK [VAV3_Y294_T298S] ) has phosphorylation enrichment equal to 0.81

Per the records, this sequence ( GSSKIYFLHPD [TLR5_Y108] ) has phosphorylation enrichment equal to 0.642

Per the records, this sequence ( QRRLIYRCQVG [NR2E3_Y81_R76Q] ) has phosphorylation enrichment equal to 0.595

Per the records, this sequence ( LQFRNYQQLFD [MAN2A1_Y442_K440R] ) has phosphorylation enrichment equal to 1.3

Per the records, this sequence ( QYNMQYSSSAA [ERBB2IP_Y981_I979M] ) has phosphorylation enrichment equal to 1.09

Per the records, this sequence ( ERMKVYVPIGF [EPHX1_Y393_T396I] ) has phosphorylation enrichment equal to 0.543

Per the records, this sequence ( QRIHDYYEHRY [HCN4_Y554] ) has phosphorylation enrichment equal to 0.445

Per the records, this sequence ( RVEDACILTCN [CCT6A_Y229_Y229C] ) has phosphorylation enrichment equal to 0.86

Per the records, this sequence ( PLDEEYFTLQI [TP53_Y327_G325E] ) has phosphorylation enrichment equal to 1.13

Per the records, this sequence ( RKPDIYGRLAS [MCM4_Y459_E460G] ) has phosphorylation enrichment equal to 0.67

Per the records, this sequence ( HFGCVYHGTLL [MET_Y1093] ) has phosphorylation enrichment equal to 1.33

Per the records, this sequence ( KKFPDYIQIAR [SGMS2_Y59_M64R_YF] ) has phosphorylation enrichment equal to 0.657

Per the records, this sequence ( SLMGCYNLTFM [HS6ST3_Y323_V320M] ) has phosphorylation enrichment equal to 1.14

Per the records, this sequence ( ATCKAYGQALA [TKT_Y321_R318C] ) has phosphorylation enrichment equal to 0.568

Per the records, this sequence ( PLFKIYVAELI [MRPL28_Y230] ) has phosphorylation enrichment equal to 0.947

Per the records, this sequence ( RGYRQYAYDGK [HLA-A_Y140_D140Y] ) has phosphorylation enrichment equal to 0.532

Per the records, this sequence ( NKYTTYLPRLP [C9orf24_Y126] ) has phosphorylation enrichment equal to 0.625

Per the records, this sequence ( PPGRSYSPFDF [TNS1_Y793_YF] ) has phosphorylation enrichment equal to 0.602

Per the records, this sequence ( DKMEAYNINET [TEKT4_Y210_D213N] ) has phosphorylation enrichment equal to 0.808

Per the records, this sequence ( HPHECYAKVFD [ALB_Y394_D389H] ) has phosphorylation enrichment equal to 1.01

Per the records, this sequence ( YKEQGYHRLPS [RIN1_Y681_P686S] ) has phosphorylation enrichment equal to 0.455

Per the records, this sequence ( QKPLDYFRVNL [GALE_Y104_YF] ) has phosphorylation enrichment equal to 0.905

Per the records, this sequence ( HEDPMYDIIRD [RP9_Y142] ) has phosphorylation enrichment equal to 1.27

Per the records, this sequence ( TNIKRYHIAKV [HARS1_Y150] ) has phosphorylation enrichment equal to 0.375

Per the records, this sequence ( SVDRDYVLKSA [HTATIP2_Y111_R106S] ) has phosphorylation enrichment equal to 0.699

Per the records, this sequence ( GNLLIYTEFGN [HGD_Y166_K171N] ) has phosphorylation enrichment equal to 2.23

Per the records, this sequence ( YQGGTYSKAST [FGG_Y380] ) has phosphorylation enrichment equal to 0.388
